Compiled literature pIC50, tested on Vascular endothelial growth factor receptor 2 (Homo sapiens).
Sequence (P35968 whole entry): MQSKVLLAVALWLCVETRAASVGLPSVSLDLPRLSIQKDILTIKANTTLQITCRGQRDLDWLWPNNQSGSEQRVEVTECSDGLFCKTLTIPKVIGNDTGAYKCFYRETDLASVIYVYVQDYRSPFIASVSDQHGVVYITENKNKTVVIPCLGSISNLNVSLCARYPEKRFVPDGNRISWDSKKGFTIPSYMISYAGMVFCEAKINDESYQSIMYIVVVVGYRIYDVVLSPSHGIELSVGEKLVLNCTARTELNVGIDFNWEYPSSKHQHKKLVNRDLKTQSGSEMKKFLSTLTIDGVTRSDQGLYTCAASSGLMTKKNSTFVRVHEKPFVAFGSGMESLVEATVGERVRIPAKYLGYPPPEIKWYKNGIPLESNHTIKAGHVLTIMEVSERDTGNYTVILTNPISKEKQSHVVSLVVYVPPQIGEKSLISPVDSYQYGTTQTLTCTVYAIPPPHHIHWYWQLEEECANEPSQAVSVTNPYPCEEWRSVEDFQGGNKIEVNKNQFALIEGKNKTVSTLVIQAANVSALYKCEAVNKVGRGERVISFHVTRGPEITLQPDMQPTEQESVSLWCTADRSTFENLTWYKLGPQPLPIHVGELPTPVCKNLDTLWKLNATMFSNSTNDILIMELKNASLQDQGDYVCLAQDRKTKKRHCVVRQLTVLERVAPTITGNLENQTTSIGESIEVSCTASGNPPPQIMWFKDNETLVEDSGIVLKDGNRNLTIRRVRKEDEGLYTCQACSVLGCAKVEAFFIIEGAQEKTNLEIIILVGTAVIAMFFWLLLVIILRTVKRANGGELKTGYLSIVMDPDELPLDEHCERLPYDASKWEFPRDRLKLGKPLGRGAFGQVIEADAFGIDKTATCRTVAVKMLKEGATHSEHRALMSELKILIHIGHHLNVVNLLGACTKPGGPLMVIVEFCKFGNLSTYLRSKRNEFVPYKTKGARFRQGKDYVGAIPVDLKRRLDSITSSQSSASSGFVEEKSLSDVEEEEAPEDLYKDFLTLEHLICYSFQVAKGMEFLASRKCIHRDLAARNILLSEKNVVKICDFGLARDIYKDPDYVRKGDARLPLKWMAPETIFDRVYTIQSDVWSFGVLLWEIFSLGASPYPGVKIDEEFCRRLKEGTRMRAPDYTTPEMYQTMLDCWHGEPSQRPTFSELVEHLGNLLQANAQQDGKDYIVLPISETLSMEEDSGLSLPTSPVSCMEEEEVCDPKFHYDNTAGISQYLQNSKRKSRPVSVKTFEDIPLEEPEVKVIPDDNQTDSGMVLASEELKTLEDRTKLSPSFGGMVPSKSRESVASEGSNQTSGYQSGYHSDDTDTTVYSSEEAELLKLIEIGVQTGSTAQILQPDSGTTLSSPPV
pIC50: −log10 of the molar value.

item smiles | experimental system | relational operator | pIC50
CN(C)S(=O)(=O)Nc1ccc(F)c(C(=O)c2c[nH]c3ncncc23)c1F | Vascular endothelial growth factor receptor 2 (Homo sapiens) | ≥ | 5.00
c1cn(Cc2ccc3c(c2)-c2[nH]nc(-c4ccsc4)c2C3)cn1 | Vascular endothelial growth factor receptor 2 (Homo sapiens) | = | 6.83
COc1cc2nc(Cl)nc(Nc3ccc(C(N)=O)cc3)c2cc1OC | Vascular endothelial growth factor receptor 2 (Homo sapiens) | = | 5.93
COC(=O)c1cncc(/C=C/c2c[nH]nc2-c2nc3ccc(OC)cc3[nH]2)c1 | Vascular endothelial growth factor receptor 2 (Homo sapiens) | = | 5.89
COc1cc2ncnc(Nc3ccc(F)cc3)c2cc1OCCCC(=O)NO | Vascular endothelial growth factor receptor 2 (Homo sapiens) | = | 6.42
COc1cc2c(Nc3ccc(NC(=O)c4cccc(Cl)c4)cc3)ncnc2cc1OCc1ccccc1 | Vascular endothelial growth factor receptor 2 (Homo sapiens) | < | 5.00
FC(F)(F)c1c[nH]c(-c2n[nH]cc2/C=C/c2cccnc2)n1 | Vascular endothelial growth factor receptor 2 (Homo sapiens) | = | 4.54
Cn1cnc(-c2cc3nccc(Oc4ccc(NC(=O)c5cnn(C(C)(C)C)c5C(F)(F)F)cc4F)c3s2)c1 | Vascular endothelial growth factor receptor 2 (Homo sapiens) | = | 5.52
Cc1c(CCC(=O)O)c[nH]c1/C=C1\C(=O)Nc2ccc(C(=O)O)cc21 | Vascular endothelial growth factor receptor 2 (Homo sapiens) | = | 6.62
O=C(Nc1cccc(-c2cn3ccnc3c(NCc3ccncc3)n2)c1)Nc1cccc(C(F)(F)F)c1 | Vascular endothelial growth factor receptor 2 (Homo sapiens) | = | 7.48
Cc1cccc(C(=O)Nc2cnc3ccccc3c2)c1O | Vascular endothelial growth factor receptor 2 (Homo sapiens) | = | 7.59
COc1ccc2nc(-c3n[nH]cc3/C=C/c3cncc(C#N)c3)[nH]c2c1 | Vascular endothelial growth factor receptor 2 (Homo sapiens) | = | 5.77
COc1ccc(/C=C/C(=O)Nc2cc3c(Nc4ccc(F)c(Cl)c4)ncnc3cc2O[C@H]2CCOC2)cc1 | Vascular endothelial growth factor receptor 2 (Homo sapiens) | = | 6.05
CC(C)Cn1c2ccc(C(=O)c3ccoc3)cc2c2c3c(c4c(c21)CCc1nn(C)cc1-4)C(=O)NC3 | Vascular endothelial growth factor receptor 2 (Homo sapiens) | = | 8.10
CCNC(=O)N1CCOc2cc(Oc3ccnc4cc(OC)c(OC)cc34)ccc21 | Vascular endothelial growth factor receptor 2 (Homo sapiens) | = | 9.00
COc1ccc(-c2cc3cc(OC)ccc3nc2Nc2ccc(NC(=O)CN3CCCC3)cc2)cc1 | Vascular endothelial growth factor receptor 2 (Homo sapiens) | = | 6.88
CN(c1ccc(NC(=O)NC2CCCC2)cc1)c1ccnc(Nc2cccc(CS(C)(=O)=O)c2)n1 | Vascular endothelial growth factor receptor 2 (Homo sapiens) | = | 7.51
COc1cc2nccc(Nc3ccc4c(C(=O)Nc5ccc(Cl)cc5)cccc4c3)c2cc1OC | Vascular endothelial growth factor receptor 2 (Homo sapiens) | = | 8.10
O=C(c1cccc(NS(=O)(=O)c2ccc(F)cc2F)c1F)c1c[nH]c2ncncc12 | Vascular endothelial growth factor receptor 2 (Homo sapiens) | ≥ | 5.00
CNS(=O)(=O)c1ccc2c(c1)/C(=C/c1[nH]c3c(c1CCCN1CCN(CCO)CC1)CCCC3)C(=O)N2 | Vascular endothelial growth factor receptor 2 (Homo sapiens) | = | 6.40
